All figures here come from ChEMBL document CHEMBL1138758.

assay: Inhibitory activity towards acetylcholine esterase (AChE); parameters: species or system Tetronarce californica
Provide the reported pIC50 of each item.
Answers are plain numbers, as −log10 of the molar value.

molecule="O=C(CC1S/C(=N/c2ccc(C3CCCCC3)cc2)NC1=O)Nc1ccc(OC(F)(F)F)cc1 (centres undefined)" readout_kind=pIC50 reported_measurement=5.54
molecule=Cc1cc(C2(c3cc(C)c(O)c(C)c3)CCCCC2)cc(C)c1O readout_kind=pIC50 reported_measurement=4.82
molecule=COc1ccc(/N=C/c2cn(-c3ccc(OC)cc3)cc2/C=N/c2ccc(OC)cc2)cc1 readout_kind=pIC50 reported_measurement=4.85
molecule="CNC(=O)Oc1ccc2c(c1)[C@]1(C)CCN(C)[C@@H]1N2C [PHYSOSTIGMINE]" readout_kind=pIC50 reported_measurement=6.44
molecule=CCCc1cc(-n2cccn2)ccc1C(=O)ONC(=N)c1ccc(C(F)(F)F)cc1 readout_kind=pIC50 reported_measurement=4.89
molecule="CC(Cc1ccc(O)cc1)C1CCC(C)C(c2ccc(O)cc2)C1 (centres undefined)" readout_kind=pIC50 reported_measurement=6.21
molecule=Cc1c(/N=C/c2ccccc2O)cc2c(c1N)C(C)(C)CC2(C)C readout_kind=pIC50 reported_measurement=4.80
molecule="O=C(Nc1cccc(C2=NCCN2)c1)Nc1cccc(C2=NCCN2)c1 [IMIDOCARB]" readout_kind=pIC50 reported_measurement=6.23

Give me pIC50 for each of these molecules, listed below.
1. Cc1nc(N)ncc1-c1nnnn1-c1ccc(-c2ccccc2)cc1
2. Fc1ccc(N(Cc2ccc3c(c2)OCO3)C(=S)Nc2cccc(C(F)(F)F)c2)cc1
3. C/C(=N/O)c1ccc(Cl)c(NC(=O)c2c(-c3ccccc3Cl)noc2C)c1
4. CN(C)c1ccc(-c2c3cc(O)c(=O)cc-3oc3cc(O)c(O)cc23)cc1
5. COc1cc(N)c(Cl)cc1C(=O)NC1CCN(Cc2ccccc2)CC1 [CLEBOPRIDE]

1. 4.57
2. 5.10
3. 5.17
4. 4.66
5. 6.05

# query: pIC50 of entry O=C(O[C@@H]1Cc2c(O)cc(O)cc2O[C@@H]1c1ccc(O)c(O)c1)c1cc(O)c(O)c(O)c1 [EPICATECHIN GALLATE]
4.55
